Recorded values, source ChEMBL document CHEMBL1128061.

- experiment: Ratio of association constant of thrombin and plasmin
Where a SMILES comes first, the peptide text is derived from it. [ ]: non-standard residue; d: D form. dPip = O=C(O)[C@H]1CCCCN1
measuredMetric: Ratio

[
  {
    "molecule": "CC(C)CCN(CC(=O)N[C@H](C=O)CCCN=C(N)N)C(=O)[C@H]1CCCCN1",
    "readoutValue": 270
  },
  {
    "molecule": "N=C(N)NCCC[C@@H](C=O)NC(=O)CN(C(=O)[C@H]1CCCCN1)c1ccccc1",
    "readoutValue": 400
  },
  {
    "molecule": "CC(C)CN(CC(=O)N[C@H](C=O)CCCN=C(N)N)C(=O)[C@H]1CCCCN1",
    "readoutValue": 480
  }
]

[1] CCCN(CC(=O)N[C@H](C=O)CCCN=C(N)N)C(=O)[C@H]1CCCCN1
[2] CC(C)N(CC(=O)N[C@H](C=O)CCCN=C(N)N)C(=O)[C@H]1CCCCN1
[3] N=C(N)NCCC[C@@H](C=O)NC(=O)[C@@H]1CCCN1C(=O)[C@H]1CCCCN1 (H-[dPip]-Pro-Arg-aldehyde)
Descending sort on Ratio required. Returns: the labels listed in the requested order.
2, 1, 3
(2: 10000, 1: 680, 3: 220)

###

- testTarget: Thrombin & trypsin (Homo sapiens) (UniProt P00734+P07477+P07478+P35030)
- experiment: Ratio of association constant of thrombin and trypsin
- Format: protein assay
measuredMetric: Ratio

[
  {
    "smilesString": "CC(C)N(CC(=O)N[C@H](C=O)CCCN=C(N)N)C(=O)[C@H]1CCCCN1",
    "testTarget": "Thrombin & trypsin (Homo sapiens) (UniProt P00734+P07477+P07478+P35030)",
    "measuredMetric": "Ratio",
    "readoutValue": 20
  }
]

[I] CCCN(CC(=O)N[C@H](C=O)CCCN=C(N)N)C(=O)[C@H]1CCCCN1
[II] CC(C)CCN(CC(=O)N[C@H](C=O)CCCN=C(N)N)C(=O)[C@H]1CCCCN1
Please compare: I and II . Report which one has the smaller Ratio value. Select an item and report its label.
II
(II: 2.7, I: 14)

###

- experiment: Ratio of association constant of thrombin and plasmin
measuredMetric: Ratio

[
  {
    "smilesString": "N=C(N)NCCC[C@@H](C=O)NC(=O)CN(Cc1ccccc1)C(=O)[C@H]1CCCCN1",
    "Ratio": 77
  }
]

[A] N=C(N)NCCC[C@@H](C=O)NC(=O)CN(CCC1CCCCC1)C(=O)[C@H]1CCCCN1
[B] CN(CC(=O)N[C@H](C=O)CCCN=C(N)N)C(=O)[C@H]1CCCCN1
Please compare: A and B . Report which one has the smaller Ratio value. Select an item and report its label.
A

###

- testTarget: Prothrombin (Homo sapiens)
- experiment: Association constant for thrombin
Where a SMILES comes first, the peptide text is derived from it. [ ]: non-standard residue; d: D form. dPip = O=C(O)[C@H]1CCCCN1
measuredMetric: K ass (L/µM)

Known results for molecules:
[
  {
    "molecule": "CCCN(CC(=O)N[C@H](C=O)CCCN=C(N)N)C(=O)[C@H]1CCCCN1",
    "K ass, L/µM": 34
  },
  {
    "molecule": "N=C(N)NCCC[C@@H](C=O)NC(=O)CN(CCCc1ccccc1)C(=O)[C@H]1CCCCN1",
    "K ass, L/µM": 24
  },
  {
    "molecule": "CN(CC(=O)N[C@H](C=O)CCCN=C(N)N)C(=O)[C@H]1CCCCN1",
    "K ass, L/µM": 22
  },
  {
    "molecule": "N=C(N)NCCC[C@@H](C=O)NC(=O)CN(CCc1ccccc1)C(=O)[C@H]1CCCCN1",
    "K ass, L/µM": 87
  },
  {
    "molecule": "N=C(N)NCCC[C@@H](C=O)NC(=O)CN(C(=O)[C@H]1CCCCN1)c1ccccc1",
    "K ass, L/µM": 16
  },
  {
    "molecule": "N=C(N)NCCC[C@@H](C=O)NC(=O)[C@@H]1CCCN1C(=O)[C@H]1CCCCN1 (H-[dPip]-Pro-Arg-aldehyde)",
    "K ass, L/µM": 200
  }
]

[I] N=C(N)NCCC[C@@H](C=O)NC(=O)CN(CCC1CCCCC1)C(=O)[C@H]1CCCCN1
[II] CCN(CC(=O)N[C@H](C=O)CCCN=C(N)N)C(=O)[C@H]1CCCCN1
Given I and II , report the one with the higher recorded K ass. Select an item and report its label.
II

###

- experiment: Ratio of association constant of thrombin and plasmin
measuredMetric: Ratio

[
  {
    "smilesString": "N=C(N)NCCC[C@@H](C=O)NC(=O)CN(CCc1ccccc1)C(=O)[C@H]1CCCCN1",
    "readoutValue": 200
  }
]

[a] N=C(N)NCCC[C@@H](C=O)NC(=O)CN(CCCc1ccccc1)C(=O)[C@H]1CCCCN1
[b] CCN(CC(=O)N[C@H](C=O)CCCN=C(N)N)C(=O)[C@H]1CCCCN1
Please compare: a and b . Report which one has the smaller Ratio value. Select an item and report its label.
a

###

- testTarget: UniProtKB P00734
- experiment: Association constant for thrombin
measuredMetric: K ass (L/µM)

[
  {
    "smilesString": "CC(C)CCN(CC(=O)N[C@H](C=O)CCCN=C(N)N)C(=O)[C@H]1CCCCN1",
    "unitInfo": "L/µM",
    "readoutValue": 16
  }
]

[A] CC(C)N(CC(=O)N[C@H](C=O)CCCN=C(N)N)C(=O)[C@H]1CCCCN1
[B] CC(C)CN(CC(=O)N[C@H](C=O)CCCN=C(N)N)C(=O)[C@H]1CCCCN1
Please compare: A and B . Report which one has the smaller K ass value. Select an item and report its label.
A
(A: 10 L/µM, B: 24 L/µM)
